# System: K. pneumoniae CI 138-16357-20362, PmxR
# MEASUREMENT DESCRIPTION: microbe, parasite or virus in culture
# Assay type: cell-based, Klebsiella pneumoniae
# STUDY CONDITIONS: carbapenem & polymyxin resistant clinical isolate; MHB, 5 × 10^5 CFU/mL, 18 h at 37 °C
Numbered stars: 1 amine (or outer) side, 2 acyl side, 3 side chain; on linkers, the order of the positions; unused ones are H or OH. Bridge positions count the residues as written; N and C are the ends. Square brackets hold non-standard residues; d marks the D form. Peptide text beside a SMILES is read from it. * marks the point of attachment. NH(2-ClPh) = Clc1ccccc1N*; Octanoyl = CCCCCCCC(=O)*; Dab = NCC[C@H](N)C(=O)O; CO = O=C([*:1])[*:2]
MIC K. pneumoniae CI 138-16357-20362, PmxR values, listed per item
PROPERTY: MIC K. pneumoniae CI 138-16357-20362, PmxR

COMPOUND	OBSERVED VALUE
CC(C)C[C@@H]1NC(=O)[C@@H](Cc2ccccc2)NC(=O)[C@H](CCN)NC(=O)[C@@H](NC(=O)[C@@H](CO)NC(=O)[C@@H](NC(=O)[C@H](CCN)NC(=O)Nc2ccccc2Cl)[C@@H](C)O)CCNC(=O)[C@H]([C@@H](C)O)NC(=O)[C@H](CCN)NC(=O)[C@H](CCN)NC1=O [Compound 17] ({NH(2-ClPh)-CO}-[Dab]T[dS][Dab][Dab][dF]L[Dab][Dab]T; lactam 4-C)	>32 µg/mL
CCCCCCCC(=O)N[C@@H](CCN)C(=O)N[C@H](C(=O)N[C@@H](CCN)C(=O)N[C@H]1CCNC(=O)[C@H]([C@@H](C)O)NC(=O)[C@H](CCN)NC(=O)[C@H](CCN)NC(=O)[C@H](CC(C)C)NC(=O)[C@@H](Cc2ccccc2)NC(=O)[C@H](CCCNC(=N)N)NC1=O)[C@@H](C)O [Compound 35] (Octanoyl-[Dab]T[Dab][Dab]R[dF]L[Dab][Dab]T; lactam 4-C)	>32 µg/mL

* * *

# Tested on: K. pneumoniae CI Koprana 100650661:1, PmxR
# STUDY CONDITIONS: MIC K. pneumoniae CI Koprana 100650661:1, PmxR (µg/mL)
Bridge positions count the residues as written; N and C are the ends. Square brackets hold non-standard residues; d marks the D form. Peptide text beside a SMILES is read from it. * marks the point of attachment. Benzoyl(4-OPh) = O=C(c1ccc(Oc2ccccc2)cc1)*; Phe(4-NH2) = Nc1ccc(C[C@H](N)C(=O)O)cc1; Octanoyl = CCCCCCCC(=O)*; Dab = NCC[C@H](N)C(=O)O
MIC values, listed per item

COMPOUND	MIC
CCCCCCCC(=O)N[C@@H](CCN)C(=O)N[C@H](C(=O)N[C@@H](CCN)C(=O)N[C@H]1CCNC(=O)[C@H]([C@@H](C)O)NC(=O)[C@H](Cc2ccc(N)cc2)NC(=O)[C@H](CCN)NC(=O)[C@H](CC(C)C)NC(=O)[C@@H](Cc2ccccc2)NC(=O)[C@H](CCN)NC1=O)[C@@H](C)O [Compound 20] (Octanoyl-[Dab]T[Dab][Dab][Dab][dF]L[Dab][Phe(4-NH2)]T; lactam 4-C)	> 32 µg/mL
CC(C)C[C@@H]1NC(=O)[C@@H](Cc2ccccc2)NC(=O)[C@H](CCN)NC(=O)[C@@H](NC(=O)[C@H](CCN)NC(=O)[C@@H](NC(=O)[C@H](CCN)NC(=O)c2ccc(Oc3ccccc3)cc2)[C@@H](C)O)CCNC(=O)[C@H]([C@@H](C)O)NC(=O)[C@H](CCN)NC(=O)[C@H](CCN)NC1=O [Compound 14] ({Benzoyl(4-OPh)}-[Dab]T[Dab][Dab][Dab][dF]L[Dab][Dab]T; lactam 4-C)	> 32 µg/mL
CCCCCCCC(=O)N[C@@H](CCN)C(=O)N[C@H](C(=O)NCC(=O)N[C@H]1CCNC(=O)[C@H]([C@@H](C)O)NC(=O)[C@H](CCN)NC(=O)[C@H](CCN)NC(=O)[C@H](CC(C)C)NC(=O)[C@@H](Cc2ccccc2)NC(=O)[C@H](CCN)NC1=O)[C@@H](C)O [Compound 38] (Octanoyl-[Dab]TG[Dab][Dab][dF]L[Dab][Dab]T; lactam 4-C)	> 32 µg/mL
